Cited source for all entries: patent US20130065883A1

- System: panel of 24 kinases
- methodDescription: Kinase selectivity testing (percentage inhibition of 24 kinases at 1 μM)
- Format: biochemical
- measurementSetup: proquinase, CK1 Alpha 1, 1 uM
quantity: % inhibiton at 1 uM CK1 Alpha 1 (%)

compound: COc1cc(NCC2CCNCC2)nc2c1nnn2-c1cccc(N(C)C)c1
reading: 5
--
compound: FC(F)(F)Oc1cccc(-n2nnc3ccc(N4CCCC5(CCCN5)CC4)nc32)c1 (centres unmarked)
reading: 0
--
compound: FC(F)(F)Oc1cccc(-n2nnc3ccc(NCC4CC5(CCNCC5)C4)nc32)c1
reading: 0
--
compound: COc1cc(NCC2CCNCC2)nc2c1nnn2-c1cccc(OC(F)(F)F)c1
reading: 4

a: OC1CCC(Nc2ccc3nnn(-c4cccc(OC(F)(F)F)c4)c3n2)CC1 (stereo in doubt)
b: FC(F)(F)c1cccc(-n2nnc3cc(Cl)c(NCC4CCNCC4)nc32)c1
c: FC(F)(F)Oc1cccc(-n2nnc3ccc(NC4CC5(CCNCC5)C4)nc32)c1
d: FC(F)(F)Oc1cccc(-n2nnc3cc(Cl)c(NCC4CCNCC4)nc32)c1
hey, can you rank those compounds up there by % inhibiton at 1 uM CK1 Alpha 1? biggest number first please Reply format: the labels, ordered as requested.
d, b, a, c

###

- System: panel of 24 kinases
- methodDescription: Kinase selectivity testing (percentage inhibition of 24 kinases at 1 μM)
- Assay type: biochemical
- measurementSetup: proquinase, FAK, 1 uM
quantity: % inhibiton at 1 uM FAK (%)

compound: FC(F)(F)c1cccc(-n2nnc3cc(Cl)c(NCC4CCNCC4)nc32)c1 [2-83]
% inhibiton at 1 uM FAK, %: 16

1: FC(F)(F)Oc1cccc(-n2nnc3ccc(NC4CC5(CCNCC5)C4)nc32)c1 [2-66]
2: COc1cc(NCC2CCNCC2)nc2c1nnn2-c1cccc(OC(F)(F)F)c1 [2-92]
Please indicate which entry, 1 or 2 , has the lower recorded % inhibiton at 1 uM FAK value. Selection: enter the item's label.
2

###

- Tested on: panel of 24 kinases
- methodDescription: Kinase selectivity testing (percentage inhibition of 24 kinases at 1 μM)
- Format: biochemical
- measurementSetup: proquinase, EGF_R, 1 uM
quantity: % inhibiton at 1 uM EGF_R (%)

molecule: COc1cc(NCC2CCNCC2)nc2c1nnn2-c1cccc(N(C)C)c1
quantity: % inhibiton at 1 uM EGF_R
reading: 0
--
molecule: OC1CCC(Nc2ccc3nnn(-c4cccc(OC(F)(F)F)c4)c3n2)CC1 (stereo in doubt)
quantity: % inhibiton at 1 uM EGF_R
reading: 9
--
molecule: FC(F)(F)Oc1cccc(-n2nnc3cc(Cl)c(NCC4CCNCC4)nc32)c1
quantity: % inhibiton at 1 uM EGF_R
reading: 18
--
molecule: FC(F)(F)Oc1cccc(-n2nnc3ccc(NCC4CC5(CCNCC5)C4)nc32)c1
quantity: % inhibiton at 1 uM EGF_R
reading: 13

1: FC(F)(F)Oc1cccc(-n2nnc3ccc(NC4CC5(CCNCC5)C4)nc32)c1
2: FC(F)(F)c1cccc(-n2nnc3cc(Cl)c(NCC4CCNCC4)nc32)c1
3: COc1cc(NCC2CCNCC2)nc2c1nnn2-c1cccc(OC(F)(F)F)c1
4: FC(F)(F)Oc1cccc(-n2nnc3ccc(N4CCCC5(CCCN5)CC4)nc32)c1 (centres unmarked)
hey, can you rank those molecules up there by % inhibiton at 1 uM EGF_R? biggest number first please Reply format: the labels, ordered as requested.
1, 4, 2, 3

###

- studySystem: PIM-1 (Homo sapiens)
- Construct: histidine tag (C); made in house
- Sequence (P11309 whole entry): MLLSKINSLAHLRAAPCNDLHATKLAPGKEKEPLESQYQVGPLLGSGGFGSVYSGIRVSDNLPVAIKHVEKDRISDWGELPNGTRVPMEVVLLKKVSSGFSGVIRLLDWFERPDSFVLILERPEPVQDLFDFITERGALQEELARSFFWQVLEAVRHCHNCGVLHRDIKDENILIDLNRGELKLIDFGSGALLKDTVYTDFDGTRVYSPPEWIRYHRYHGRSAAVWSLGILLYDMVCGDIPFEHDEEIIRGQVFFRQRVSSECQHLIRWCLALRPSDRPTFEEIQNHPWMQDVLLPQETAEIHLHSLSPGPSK
- methodDescription: PIM-1 biochemical assay (ADP Hunter);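 further: recombinant human PIM-1 carrying a C-terminal His tag, kinase activity quantified via ADP formed as the direct enzymatic product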
- measurementSetup: actual IC50 value in parentheses; read-out: PIM1 IC50
pIC50: −log10 of the molar value.
quantity: pIC50

molecule: FC(F)(F)Oc1cccc(-n2nnc3ccc(N4CCC5(CC4)CNCCO5)nc32)c1
studySystem: PIM-1 (Homo sapiens)
pIC50: 7.13

a: FC(F)(F)Oc1cccc(-n2nnc3ccc(NCC4CCN(Cc5ccncc5)CC4)nc32)c1
b: FC(F)(F)Oc1cccc(-n2nnc3ccc(N4CCCC5(CCCN5)CC4)nc32)c1 (centres unmarked)
c: CS(=O)(=O)N1CCC(Nc2ccc3nnn(-c4cccc(OC(F)(F)F)c4)c3n2)CC1
d: FC(F)(F)Oc1cccc(-n2nnc3cc(Br)c(NCC4CCNCC4)nc32)c1
hey, can you rank those molecules up there by pIC50? biggest number first please Reply format: the labels, ordered as requested.
b, d, a, c

###

- System: panel of 24 kinases
- methodDescription: Kinase selectivity testing (percentage inhibition of 24 kinases at 1 μM)
- Assay type: biochemical
- measurementSetup: proquinase, FAK, 1 uM
quantity: % inhibiton at 1 uM FAK (%)

Solved entries (count: 3):
compound: FC(F)(F)Oc1cccc(-n2nnc3cc(Cl)c(NCC4CCNCC4)nc32)c1
% inhibiton at 1 uM FAK (%): 28

compound: FC(F)(F)Oc1cccc(-n2nnc3ccc(N4CCCC5(CCCN5)CC4)nc32)c1 (centres unmarked)
% inhibiton at 1 uM FAK (%): 31

compound: COc1cc(NCC2CCNCC2)nc2c1nnn2-c1cccc(N(C)C)c1
% inhibiton at 1 uM FAK (%): 6

A: OC1CCC(Nc2ccc3nnn(-c4cccc(OC(F)(F)F)c4)c3n2)CC1 (stereo in doubt)
B: FC(F)(F)Oc1cccc(-n2nnc3ccc(NCC4CC5(CCNCC5)C4)nc32)c1
API: POST /compare with A and B ; response names the item with higher % inhibiton at 1 uM FAK. Selection: enter the item's label.
B

###

- System: tumor cell lines
- methodDescription: Combination assay (MTT in vitro cell proliferation, combination index)
- Type: cell-based
- measurementSetup: Homo sapiens, A549, A549, lung adenocarcinoma; chemotherapeutic alone; read-out: Chemo EC50
quantity: pEC50
# pEC50: negative log10 of molar concentration; output just the value

Item under review: CS(=O)(=O)N1CCN(Cc2cc3nc(-c4cccc5[nH]ncc45)nc(N4CCOCC4)c3s2)CC1 [GDC-0941, reference compound] . Reported pEC50?
5.22

###

- Tested on: panel of 24 kinases
- methodDescription: Kinase selectivity testing (percentage inhibition of 24 kinases at 1 μM)
- Assay type: biochemical
- measurementSetup: proquinase, RPS5 KA1, 1 uM
quantity: % inhibiton at 1 uM RPS5 KA1 (%)

Solved entries (count: 2):
molecule: FC(F)(F)Oc1cccc(-n2nnc3cc(Cl)c(NCC4CCNCC4)nc32)c1 [2-54]
studySystem: panel of 24 kinases
quantity: % inhibiton at 1 uM RPS5 KA1
reading: 8
//
molecule: FC(F)(F)c1cccc(-n2nnc3cc(Cl)c(NCC4CCNCC4)nc32)c1 [2-83]
studySystem: panel of 24 kinases
quantity: % inhibiton at 1 uM RPS5 KA1
reading: 36

1: FC(F)(F)Oc1cccc(-n2nnc3ccc(N4CCCC5(CCCN5)CC4)nc32)c1 (stereo not shown) [2-65]
2: FC(F)(F)Oc1cccc(-n2nnc3ccc(NC4CC5(CCNCC5)C4)nc32)c1 [2-66]
API: POST /compare with 1 and 2 ; response names the item with higher % inhibiton at 1 uM RPS5 KA1. Selection: enter the item's label.
2

I: FC(F)(F)Oc1cccc(-n2nnc3ccc(NCC4CC5(CCNCC5)C4)nc32)c1 [2-67]
II: OC1CCC(Nc2ccc3nnn(-c4cccc(OC(F)(F)F)c4)c3n2)CC1 (stereo in doubt) [2-47]
API: POST /compare with I and II ; response names the item with higher % inhibiton at 1 uM RPS5 KA1. Selection: enter the item's label.
I

###

- Test system: H1299 cells overexpressing Pim1 (H1299Pim1)
- methodDescription: BAD S112 phosphorylation inhibition assay (In Cell ELISA)
- Format: cell-based
- measurementSetup: Homo sapiens, NCI-H1299, inhibition of Bad-phosphorylation, read-out: Cell assay BAD_P H1299 PIM1
quantity: EC50 (nM)

compound: FC(F)(F)Oc1cccc(-n2nnc3cc(Cl)c(NCC4CCNCC4)nc32)c1 [2-54]
EC50 (nM): 599

compound: COc1cc(NCC2CCNCC2)nc2c1nnn2-c1cccc(OC(F)(F)F)c1 [2-92]
EC50 (nM): 136

compound: COc1cc(NCC2CCNCC2)nc2c1nnn2-c1cccc(N(C)C)c1 [2-87]
EC50 (nM): 100

1: FC(F)(F)c1cccc(-n2nnc3cc(Cl)c(NCC4CCNCC4)nc32)c1 [2-83]
2: O[C@H]1CC[C@@H](Nc2nc3c(cc2Cl)nnn3-c2cccc(OC(F)(F)F)c2)CC1 [2-85]
API: POST /compare with 1 and 2 ; response names the item with higher EC50. Selection: enter the item's label.
1
(1: 458 nM, 2: 262 nM)

###

Reported IC50 values are given for each entry in this list.
- studySystem: PIM-3 (Homo sapiens, UniProt Q86V86)
- Construct: purchased Millipore 14-738
- methodDescription: PIM-3 biochemical assay (ADP Hunter);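 further: kinase activity read out as the quantity of ADP generated by the enzyme reaction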
- measurementSetup: semi-quantitative class; read-out: PIM3 IC50

Solved entries (count: 4):
compoundStructure: CN1CCC(CNc2nc3c(cc2Cl)nnn3-c2cccc(OC(F)(F)F)c2)CC1
IC50: > 1000 nM
//
compoundStructure: CNC1CCN(c2ccc3nnn(-c4cccc(OC(F)(F)F)c4)c3n2)CC1
IC50: 100 to 1000 nM
//
compoundStructure: CCN1CCC(CNc2ccc3nnn(-c4cccc(OC(F)(F)F)c4)c3n2)CC1
IC50: 100 to 1000 nM
//
compoundStructure: O[C@H]1CC[C@@H](CNc2ccc3nnn(-c4cccc(OC(F)(F)F)c4)c3n2)CC1
IC50: 100 to 1000 nM

Item under review: `FC(F)(F)Oc1cccc(-n2nnc3ccc(N4CCOC5(CCNCC5)C4)nc32)c1` . Reported IC50?
> 1000 nM

Also `COc1cc(NC2CC3(CCNCC3)C2)nc2c1nnn2-c1cccc(N(C)C)c1` , if possible.
< 100 nM

Also `CS(=O)(=O)N1CCN(c2ccc3nnn(-c4cccc(OC(F)(F)F)c4)c3n2)CC1` , if possible.
> 1000 nM

Also `CS(=O)(=O)NC1CCN(c2ccc3nnn(-c4cccc(OC(F)(F)F)c4)c3n2)CC1` , if possible.
100 to 1000 nM

Also `FC(F)(F)Oc1cccc(-n2nnc3cc(Cl)c(NC4CC5(CCNCC5)C4)nc32)c1` , if possible.
< 100 nM
